# EXPERIMENTAL DETAILS: in vivo
# EXPERIMENTAL CONTEXT: CD1 nude, mouse, 0.5 nmol/mouse, total radioactivity, Liver uptake
ASSAY READOUT: tissue uptake at 1 h (%ID/g)
Write the value in %ID/g as a bare number.

Return reported tissue uptake at 1 h; argument: Cc1ccc(CCCC(=O)NCCOCCOCCOCCOCCC(=O)NCCCC[C@H](NC(=O)CN2CCN(CC(=O)O)CCN(CC(=O)O)CCN(CC(=O)O)CC2)C(=O)N[C@@H](CC(=O)O)C(=O)N[C@@H](CC2CCCCC2)C(=O)N[C@@H](Cc2ccccc2)C(=O)N[C@H](CO)C(=O)N[C@H](CCCNC(=N)N)C(=O)N[C@@H](Cc2ccc(O)cc2)C(=O)N[C@@H](CC(C)C)C(=O)N[C@@H](Cc2c[nH]c3ccccc23)C(=O)N[C@@H](CO)C(N)=O)cc1 [[^177Lu]Lu-uPAR-11, metal not drawn]
4.5

----------
# EXPERIMENTAL DETAILS: in vivo
# EXPERIMENTAL CONTEXT: CD1 nude, mouse, 0.5 nmol/mouse, total radioactivity, HEK-uPAR xenograft uptake
ASSAY READOUT: tissue uptake at 48 h (%ID/g)
Quick reminder: number only, in %ID/g, skip the unit.

What does the data say about its tissue uptake at 48 h? Entry: Cc1ccc(CCCC(=O)NCCOCCOCCOCCOCCC(=O)NCCCC[C@H](NC(=O)CN2CCN(CC(=O)O)CCN(CC(=O)O)CCN(CC(=O)O)CC2)C(=O)N[C@@H](CC(=O)O)C(=O)N[C@@H](CC2CCCCC2)C(=O)N[C@@H](Cc2ccccc2)C(=O)N[C@H](CO)C(=O)N[C@H](CCCNC(=N)N)C(=O)N[C@@H](Cc2ccc(O)cc2)C(=O)N[C@@H](CC(C)C)C(=O)N[C@@H](Cc2c[nH]c3ccccc23)C(=O)N[C@@H](CO)C(N)=O)cc1 [[^177Lu]Lu-uPAR-11, metal not drawn]
5.3

----------
# Type: in vitro ADME
# EXPERIMENTAL CONTEXT: 1 h, 1 µM
ASSAY READOUT: Human blood plasma stability, intact radiopeptide (%)
The response must be a number in % with no trailing unit.

Can you share its Human blood plasma stability, intact radiopeptide? I mean this compound: Cc1ccc(CCCC(=O)NCCOCCOCCOCCOCCOCCC(=O)NCCCC[C@H](NC(=O)CN2CCN(CC(=O)O)CCN(CC(=O)O)CCN(CC(=O)O)CC2)C(=O)N[C@@H](CC(=O)O)C(=O)N[C@@H](CC2CCCCC2)C(=O)N[C@@H](Cc2ccccc2)C(=O)N[C@H](CO)C(=O)N[C@H](CCCNC(=N)N)C(=O)N[C@@H](Cc2ccc(O)cc2)C(=O)N[C@@H](CC(C)C)C(=O)N[C@@H](Cc2c[nH]c3ccccc23)C(=O)N[C@@H](CO)C(N)=O)cc1 [[^177Lu]Lu-uPAR-18, metal not drawn]
100

----------
# EXPERIMENTAL DETAILS: in vivo
# EXPERIMENTAL CONTEXT: CD1 nude, mouse, 0.5 nmol/mouse, total radioactivity, Lung uptake
ASSAY READOUT: tissue uptake at 4 h

Record request: tissue uptake at 4 h value, item Cc1ccc(CCCC(=O)NCCOCCOCCOCCC(=O)NCCCC[C@H](NC(=O)CN2CCN(CC(=O)O)CCN(CC(=O)O)CCN(CC(=O)O)CC2)C(=O)N[C@@H](CC(=O)O)C(=O)N[C@@H](CC2CCCCC2)C(=O)N[C@@H](Cc2ccccc2)C(=O)N[C@H](CO)C(=O)N[C@H](CCCNC(=N)N)C(=O)N[C@@H](Cc2ccc(O)cc2)C(=O)N[C@@H](CC(C)C)C(=O)N[C@@H](Cc2c[nH]c3ccccc23)C(=O)N[C@@H](CO)C(N)=O)cc1 [[^177Lu]Lu-uPAR-15, metal not drawn]
2.6 %ID/g

Repeat for the following molecule: Cc1ccc(CCCC(=O)NCCCCCCCC(=O)NCCCC[C@H](NC(=O)CN2CCN(CC(=O)O)CCN(CC(=O)O)CCN(CC(=O)O)CC2)C(=O)N[C@@H](CC(=O)O)C(=O)N[C@@H](CC2CCCCC2)C(=O)N[C@@H](Cc2ccccc2)C(=O)N[C@H](CO)C(=O)N[C@H](CCCNC(=N)N)C(=O)N[C@@H](Cc2ccc(O)cc2)C(=O)N[C@@H](CC(C)C)C(=O)N[C@@H](Cc2c[nH]c3ccccc23)C(=O)N[C@@H](CO)C(N)=O)cc1 [[^177Lu]Lu-uPAR-12, metal not drawn]
7.2 %ID/g

----------
Please go through the items and note down their tissue uptake at 4 h.
# EXPERIMENTAL DETAILS: in vivo
# EXPERIMENTAL CONTEXT: CD1 nude, mouse, 0.5 nmol/mouse, total radioactivity, Salivary glands uptake
The response must be a number in %ID/g with no trailing unit.

Find the recorded tissue uptake at 4 h belonging to Cc1ccc(CCCC(=O)NCCOCCOCCOCCOCCC(=O)NC[C@H](NC(=O)CN2CCN(CC(=O)O)CCN(CC(=O)O)CCN(CC(=O)O)CC2)C(=O)N[C@@H](CC(=O)O)C(=O)N[C@@H](CC2CCCCC2)C(=O)N[C@@H](Cc2ccccc2)C(=O)N[C@H](CO)C(=O)N[C@H](CCCNC(=N)N)C(=O)N[C@@H](Cc2ccc(O)cc2)C(=O)N[C@@H](CC(C)C)C(=O)N[C@@H](Cc2c[nH]c3ccccc23)C(=O)N[C@@H](CO)C(N)=O)cc1 [[^177Lu]Lu-uPAR-14, metal not drawn] and report it.
1.1

Check Cc1ccc(CCCC(=O)NCCOCCOCCOCCC(=O)NCCCC[C@H](NC(=O)CN2CCN(CC(=O)O)CCN(CC(=O)O)CCN(CC(=O)O)CC2)C(=O)N[C@@H](CC(=O)O)C(=O)N[C@@H](CC2CCCCC2)C(=O)N[C@@H](Cc2ccccc2)C(=O)N[C@H](CO)C(=O)N[C@H](CCCNC(=N)N)C(=O)N[C@@H](Cc2ccc(O)cc2)C(=O)N[C@@H](CC(C)C)C(=O)N[C@@H](Cc2c[nH]c3ccccc23)C(=O)N[C@@H](CO)C(N)=O)cc1 [[^177Lu]Lu-uPAR-15, metal not drawn] too.
1.2

----------
# Assay type: in vitro ADME
# EXPERIMENTAL CONTEXT: 4 h, 1 µM
# Procedure: The ^177Lu-labeled peptides (50 MBq/nmol) were incubated in mouse or human blood plasma (10 MBq/200 µL) over an incubation period of 24 h at 37 °C. Aliquots and control samples of the radiopeptides diluted in saline were analyzed after 1 h, 4 h and 24 h using thin layer chromatography (TLC) as previously reported (Supplementary Material). […]
ASSAY READOUT: Mouse blood plasma stability, intact radiopeptide (%)
Reply with just the number (in %).

I would be grateful if you could share the reported Mouse blood plasma stability, intact radiopeptide for Cc1ccc(CCCC(=O)NCCCCCCCC(=O)NCCCC[C@H](NC(=O)CN2CCN(CC(=O)O)CCN(CC(=O)O)CCN(CC(=O)O)CC2)C(=O)N[C@@H](CC(=O)O)C(=O)N[C@@H](CC2CCCCC2)C(=O)N[C@@H](Cc2ccccc2)C(=O)N[C@H](CO)C(=O)N[C@H](CCCNC(=N)N)C(=O)N[C@@H](Cc2ccc(O)cc2)C(=O)N[C@@H](CC(C)C)C(=O)N[C@@H](Cc2c[nH]c3ccccc23)C(=O)N[C@@H](CO)C(N)=O)cc1 [[^177Lu]Lu-uPAR-12, metal not drawn] .
99

Note, next up: Cc1ccc(CCCC(=O)NCCOCCOCCOCCC(=O)NCCCC[C@H](NC(=O)CN2CCN(CC(=O)O)CCN(CC(=O)O)CCN(CC(=O)O)CC2)C(=O)N[C@@H](CC(=O)O)C(=O)N[C@@H](CC2CCCCC2)C(=O)N[C@@H](Cc2ccccc2)C(=O)N[C@H](CO)C(=O)N[C@H](CCCNC(=N)N)C(=O)N[C@@H](Cc2ccc(O)cc2)C(=O)N[C@@H](CC(C)C)C(=O)N[C@@H](Cc2c[nH]c3ccccc23)C(=O)N[C@@H](CO)C(N)=O)cc1 [[^177Lu]Lu-uPAR-15, metal not drawn]
99

Record: Cc1ccc(CCCC(=O)NCCOCCOCCOCCOCCC(=O)NCCCC[C@H](NC(=O)CN2CCN(CC(=O)O)CCN(CC(=O)O)CCN(CC(=O)O)CC2)C(=O)N[C@@H](CC(=O)O)C(=O)N[C@@H](CC2CCCCC2)C(=O)N[C@@H](Cc2ccccc2)C(=O)N[C@H](CO)C(=O)N[C@H](CCCNC(=N)N)C(=O)N[C@@H](Cc2ccc(O)cc2)C(=O)N[C@@H](CC(C)C)C(=O)N[C@@H](Cc2c[nH]c3ccccc23)C(=O)N[C@@H](CO)C(N)=O)cc1 [[^177Lu]Lu-uPAR-11, metal not drawn]
99

Repeat for the following compound: Cc1ccc(CCCC(=O)NCCOCCOCCOCCOCCC(=O)NCCCC[C@H](NC(=O)CC[C@H](C(=O)O)N2CCN(CC(=O)O)CCN(CC(=O)O)CCN(CC(=O)O)CC2)C(=O)N[C@@H](CC(=O)O)C(=O)N[C@@H](CC2CCCCC2)C(=O)N[C@@H](Cc2ccccc2)C(=O)N[C@H](CO)C(=O)N[C@H](CCCNC(=N)N)C(=O)N[C@@H](Cc2ccc(O)cc2)C(=O)N[C@@H](CC(C)C)C(=O)N[C@@H](Cc2c[nH]c3ccccc23)C(=O)N[C@@H](CO)C(N)=O)cc1 [[^177Lu]Lu-uPAR-17, metal not drawn]
97

Record: Cc1ccc(CCCC(=O)NCCOCCOCCOCCOCCOCCC(=O)NCCCC[C@H](NC(=O)CN2CCN(CC(=O)O)CCN(CC(=O)O)CCN(CC(=O)O)CC2)C(=O)N[C@@H](CC(=O)O)C(=O)N[C@@H](CC2CCCCC2)C(=O)N[C@@H](Cc2ccccc2)C(=O)N[C@H](CO)C(=O)N[C@H](CCCNC(=N)N)C(=O)N[C@@H](Cc2ccc(O)cc2)C(=O)N[C@@H](CC(C)C)C(=O)N[C@@H](Cc2c[nH]c3ccccc23)C(=O)N[C@@H](CO)C(N)=O)cc1 [[^177Lu]Lu-uPAR-18, metal not drawn]
99

Then this compound: Cc1ccc(CCCC(=O)NCCOCCOCCOCCOCCC(=O)NC[C@H](NC(=O)CN2CCN(CC(=O)O)CCN(CC(=O)O)CCN(CC(=O)O)CC2)C(=O)N[C@@H](CC(=O)O)C(=O)N[C@@H](CC2CCCCC2)C(=O)N[C@@H](Cc2ccccc2)C(=O)N[C@H](CO)C(=O)N[C@H](CCCNC(=N)N)C(=O)N[C@@H](Cc2ccc(O)cc2)C(=O)N[C@@H](CC(C)C)C(=O)N[C@@H](Cc2c[nH]c3ccccc23)C(=O)N[C@@H](CO)C(N)=O)cc1 [[^177Lu]Lu-uPAR-14, metal not drawn]
97
